System: HCC-2998 colon
assay-procedure: NCI tumour cell line growth inhibition, 48 h
readout-type: TGI

Recorded TGI, per entry:
| compound | result |
| --- | --- |
| O=[N+]([O-])c1ccc(/C=C/c2ccc(N=Nc3ccc(/C=C/c4ccc([N+](=O)[O-])cc4S(=O)(=O)O)c(S(=O)(=O)O)c3)cc2S(=O)(=O)O)c(S(=O)(=O)O)c1 | > 100 µM |
| O=C1CN(c2ccc(Cl)cc2)C(=O)CN1CCN1CC(=O)N(c2ccc(Cl)cc2)CC1=O | > 100 µM |
| C#CC(O)/C=C/CCCCCCC#CC/C=C\CC#CCCCCCC/C=C/C(O)C#C (centres undefined) | 3.39 µM |

Moving on to the next compound.
Quick note, TGI for COc1ccc(C2NCCc3c2[nH]c2ccccc32)cc1CN1CCN(c2ccc(F)cc2)CC1 (centres undefined) landed at 3.33 µM
